assay_protocol: Partition coefficient (logP)
Assay type: physicochemical
experimental_parameters: octanol/water
Please assign label 0 whenever logP is at or above 2, and label 1 whenever it is below.

{"columns": ["compound_structure", "discrete_label"],
 "data": [
  ["COC(=O)/C=C/C(=O)c1cccnc1", "label 1"],
  ["C/C(=C/C(=O)c1ccc(C)cc1)C(=O)O", "label 0"],
  ["C/C(=C\\C(=O)O)C(=O)c1ccc(C)cc1", "label 0"],
  ["C/C(=C/C(=O)O)C(=O)c1ccccc1", "label 1"],
  ["CCCCCCCC(=O)/C(C)=C(/C)C(=O)O", "label 0"],
  ["C/C(=C\\C(=O)c1ccc(C)cc1)C(=O)O", "label 0"],
  ["C/C(=C\\C(=O)O)C(=O)c1ccccc1", "label 0"],
  ["Cc1ccc(C(=O)/C=C/C(=O)O)cc1", "label 0"],
  ["COC(=O)/C=C/C(=O)c1ccc(C)cc1", "label 0"],
  ["O=C(O)/C=C/C(=O)c1ccc(-c2ccccc2)cc1", "label 0"],
  ["O=C(O)/C=C/C(=O)c1cccnc1", "label 1"],
  ["CCCCC(=O)/C(C)=C(/C)C(=O)O", "label 1"],
  ["COC(=O)/C=C\\C(=O)c1ccccc1", "label 1"],
  ["CCCCCCCCCCCC(=O)/C(C)=C(/C)C(=O)O", "label 0"],
  ["COC(=O)/C=C/C(=O)c1ccccc1", "label 0"],
  ["O=C(O)/C=C/C(=O)c1ccccc1", "label 1"],
  ["C/C(=C/C(=O)O)C(=O)c1ccc(C)cc1", "label 0"]
]}
